- SYSTEM: gH/gL of HCMV strain AD169 (on virus AD169 and on reporter virus AD169R) (human cytomegalovirus (strain AD169), UniProt P12824 24-743; P16832 31-278)
- ASSAY_EXPLANATION: cell-based or functional assay
MEASUREMENT_TYPE: IC50(ARPE-19) AD169R, virus neutralization (µg/mL)

BINDER	UNIT_OF_MEASUREMENT	REPORTED_VALUE
15G11 (antibody, V domains shown, also called 15G11 (ms); anti-gH mAb 15G11) VH: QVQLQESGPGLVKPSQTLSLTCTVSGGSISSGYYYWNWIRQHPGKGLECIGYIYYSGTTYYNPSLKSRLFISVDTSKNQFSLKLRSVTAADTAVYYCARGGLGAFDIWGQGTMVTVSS VL: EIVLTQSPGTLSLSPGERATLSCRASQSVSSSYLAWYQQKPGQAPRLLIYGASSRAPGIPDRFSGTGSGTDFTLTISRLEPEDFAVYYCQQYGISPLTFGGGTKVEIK	µg/mL	0.24
13G1 (antibody, V domains shown, also called 13G1 (ms); anti-gH mAb 13G1) VH: QVTLKESGPVLVKPTETLTLTCTVSGFSLYNARMGVTWIRQPPGKALEWLAHIFSNDERSYTSSLKNRLTISKDTSKSQVVLTMTNMDPVDTATYYCARIDYSNYIGNWFDPWGQGTLVTVSS VL: DIQMTQSPSSLSASVGDRVTITCRASQSISNYLNWYQQKPGKAPKLLIYAASSLQGGVPSRFSGSGSGTDFTLTISSLQPEDFTTYYCQQSYSTPFTFGGGTKVEIK	µg/mL	1.03
9A12 (antibody, V domains shown, also called 9A12 (ms); anti-gH mAb 9A12) VH: EVQLVESGGVLVQPGGSLRLSCAASGFTFSSHEMNWVRQAPGKGLEWISYISSTGSTIYDADSVKGRFTISRDNAKNSLYLQMNSLRAEDTAVYYCARSSGWYRNYSYGMDVWGQGTTVTVSS VL: DIQMAQSPSSLSASVGDRVTITCRASQGIYNYLAWFQQKPGKAPKSLIYAASSLQTGVPSKFSGSGSGTDFTLTISNLQPEDFATYYCQQYNSFPRTFGQGTKVEIK	µg/mL	1.28
14E1 (antibody, V domains shown, also called 14E1 (ms)) VH: QVQLVQSGAEVKKPGASVKVSCKASGYTFTSYSISWVRQAPGQGLEWMGWINTYNGNTNYAQRVQARVTMTTDTSTSTAYMELRSLRSDDTAVYYCARDHGFFFDYWGQGNLVTVSS VL: DIQLTQSPSFLSASVGDRVTITCWASQGISSYLAWYQQKPGKAPKLLIYAASTLQSGVPSRFSGSGSGTEFTLTISSLQPEDFATYYCQQLNSYPYTFGQGTQLEIK	µg/mL	0.11
